Origin of values: patent US20120107324A1

Biological target: human α5β1 integrin (human, UniProt P08648 42-1049; P05556 21-798)
Sequence (P08648 42-1049, chain 1 of 2): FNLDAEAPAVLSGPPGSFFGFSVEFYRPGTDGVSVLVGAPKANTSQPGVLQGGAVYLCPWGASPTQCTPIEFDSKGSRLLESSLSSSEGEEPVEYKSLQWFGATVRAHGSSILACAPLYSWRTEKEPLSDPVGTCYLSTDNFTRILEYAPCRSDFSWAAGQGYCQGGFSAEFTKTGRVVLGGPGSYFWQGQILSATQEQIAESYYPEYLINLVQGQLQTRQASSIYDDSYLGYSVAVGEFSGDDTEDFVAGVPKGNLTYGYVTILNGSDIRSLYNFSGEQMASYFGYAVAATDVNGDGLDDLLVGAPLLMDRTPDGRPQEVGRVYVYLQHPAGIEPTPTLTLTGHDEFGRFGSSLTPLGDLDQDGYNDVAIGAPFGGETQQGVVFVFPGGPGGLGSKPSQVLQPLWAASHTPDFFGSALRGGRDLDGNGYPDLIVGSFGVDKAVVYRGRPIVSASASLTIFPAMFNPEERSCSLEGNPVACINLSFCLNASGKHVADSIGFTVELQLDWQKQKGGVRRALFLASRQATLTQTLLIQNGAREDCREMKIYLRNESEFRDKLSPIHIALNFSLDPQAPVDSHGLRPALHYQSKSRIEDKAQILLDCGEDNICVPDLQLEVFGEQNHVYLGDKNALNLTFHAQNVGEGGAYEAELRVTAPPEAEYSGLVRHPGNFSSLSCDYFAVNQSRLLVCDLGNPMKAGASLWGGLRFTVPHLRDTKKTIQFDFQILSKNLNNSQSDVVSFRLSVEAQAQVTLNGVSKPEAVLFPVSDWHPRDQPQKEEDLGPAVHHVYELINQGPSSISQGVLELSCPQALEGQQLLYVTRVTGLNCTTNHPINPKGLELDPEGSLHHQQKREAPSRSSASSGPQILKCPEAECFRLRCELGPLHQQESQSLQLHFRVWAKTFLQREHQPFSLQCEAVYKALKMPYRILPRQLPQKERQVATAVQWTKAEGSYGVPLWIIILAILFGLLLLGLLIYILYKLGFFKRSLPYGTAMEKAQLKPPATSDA
Sequence (P05556 21-798, chain 2 of 2): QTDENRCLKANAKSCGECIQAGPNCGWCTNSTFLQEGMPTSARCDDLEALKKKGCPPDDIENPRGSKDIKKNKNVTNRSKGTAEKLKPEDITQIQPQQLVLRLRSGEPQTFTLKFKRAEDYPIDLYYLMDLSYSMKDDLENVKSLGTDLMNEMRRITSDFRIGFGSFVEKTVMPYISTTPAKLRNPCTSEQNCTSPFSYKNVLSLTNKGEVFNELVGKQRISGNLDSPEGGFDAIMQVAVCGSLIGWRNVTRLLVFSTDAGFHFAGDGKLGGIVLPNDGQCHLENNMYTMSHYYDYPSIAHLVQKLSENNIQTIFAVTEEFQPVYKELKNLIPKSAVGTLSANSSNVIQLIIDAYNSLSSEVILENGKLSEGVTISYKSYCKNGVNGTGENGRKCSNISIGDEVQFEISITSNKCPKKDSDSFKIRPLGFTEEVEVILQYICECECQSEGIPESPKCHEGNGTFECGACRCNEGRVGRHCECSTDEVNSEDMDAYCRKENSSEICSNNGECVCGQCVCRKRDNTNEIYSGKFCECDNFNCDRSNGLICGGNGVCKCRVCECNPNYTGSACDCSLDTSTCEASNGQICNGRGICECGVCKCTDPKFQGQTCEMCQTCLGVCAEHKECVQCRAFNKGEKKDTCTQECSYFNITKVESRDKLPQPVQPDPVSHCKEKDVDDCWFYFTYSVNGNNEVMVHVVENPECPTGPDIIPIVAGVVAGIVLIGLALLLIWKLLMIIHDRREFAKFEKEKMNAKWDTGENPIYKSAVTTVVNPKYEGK
Assay: cell-based or functional assay
Listing of entries alongside the reported % Inhibition of cell adhesion, n = 4 (K562 on GST-FNIII(9-10), supernatant 1 in 10).
Express the result in % but write the number alone.

2G2.2B5 (antibody, IgG4, V domains shown, Isotype IgG4/k) VH: QVQLVESGGGVVQPGRSLRLSCAASGFTFSSYGMHWVRQAPGKGLEWVAVIWYDGSNKYYADSVKGRFTISRDNSKNTLYLQMNSLRAEDTAVYYCARDGAARRGDYYYYYGMDVWGQGTTVTVSS VL: EIVMTQSPLSLPVTPGEPASISCRSGQSLLQSTGSNYLAWYLQKPGQSPQLLIYLGSNRASGVPDRFSGSGSGTDFTLKISRVEAEDVGVYYCMQALQTPFTFGPGTKVDIK ... 82
2H12 (antibody, IgG4, V domains shown, Identified as an IgG4/k antibody; also called MAb 2H12; 2H12 IgG4) VH: QVQLVESGGGVVQPGRSLRLSCAASGFTFSSYGMHWVRQAPGKGLEWVAVIWYDGTNKYYADSVKGRFTISRDNSKTTLYLQMNSLRAEDTAVYYCARDGAARRGDYYYYYGMDVWGQGTTVTVSS VL: DIVMTQSPLSLPVTPGEPASISCRSSQSLLRGHGYSYLDWYLQKPGQSPQLLIYLGSNRASGVPDRFSGSGSGTDFTLKISRVEAEDVGVYYCMQALQTPFTFGPGTKVDIK ... 92
4G3.3D11 (antibody, IgG4, V domains shown, Isotype IgG4/k) VH: QVQLVESGGGVVQPGRSLRLSCAASGFIFSSYGMHWVRQAPGKGLEWVAVIWYDGTNKYYADSVKGRFTISRDNSKNTLYLQMNSLRAEDTAVYYCARDGAARRGDYYYYYGMDVWGQGTTVTVSS VL: DIVMTQSPLSLPVTPGEPASISCRSSQSLLHGTGYSSLDWYLQKPGQSPQLLIYLGSNRASGVPDRFSGSGSGTDFTLKISRVEAEDVGVYFCMQALQTPFTFGPGTKVDIK ... 100

Provide only the value of recorded % Inhibition of cell adhesion, n = 4 (K562 on GST-FNIII(9-10), supernatant 1 in 10) for 3F12.4A1 (antibody, IgG2, V domains shown, Isotype IgG2/k) VH: QVQLVESGGGVVQPGRSLRLSCAASGFTFSSYGMHWVRQAPGKGLEWVAVIWYDGTNKYYADSVKGRFTISRDNSKNTLYLQMNSLTAEDTAVYYCARDMAARRGDYYYYYGMDVWGPGTTVTVSS VL: DIVMTQSPLSLPVTPGEPASISCRSSQSLLNGIGYNFLDWYLQKPGQSPQLLIYLGSNRASGVPDRFSGSGSGTDFTLTISRVEAEDVGVYYCMHALQTPFTFGPGTKVDIK
93
